Consider the following compounds; for each one, report its % CD80.
- System: CD80
- methodNotes: CD80 relative quantification by flow cytometry in co-cultured THP-1
- Assay type: cell-based, human
- cond: membrane THP-1, 1:5 HT-29/THP-1; 24 h, 20 μM, related to non-treated cells
Give bare numbers, in %.

Worked cases, answers included:
compound	propertyName	uom	testValue
COc1ccc(COc2cccc(NC(=O)Nc3ccc(Br)cc3)c2)cc1 [Compound 8]	% CD80	%	95
COc1ccc(COc2cccc(NC(=O)Oc3ccccc3)c2)cc1 [Compound 14]	% CD80	%	99
Cc1c(COc2ccc(CN3CCCCC3C(=O)O)cc2Br)cccc1-c1ccccc1 (centres unmarked) [BMS-8, reference compound]	% CD80	%	101
COc1ccc(COc2cccc(NC(=O)Nc3ccc(F)cc3)c2)cc1 [Compound 2]	% CD80	%	99

Pending compound:
Report % CD80 for COc1ccc(COc2cccc(NC(=O)Nc3ccc(OC)cc3)c2)cc1 [Compound 11] please. 102

---

- studyTarget: PD-L1 (Homo sapiens)
- Sequence (Q9NZQ7 19-290): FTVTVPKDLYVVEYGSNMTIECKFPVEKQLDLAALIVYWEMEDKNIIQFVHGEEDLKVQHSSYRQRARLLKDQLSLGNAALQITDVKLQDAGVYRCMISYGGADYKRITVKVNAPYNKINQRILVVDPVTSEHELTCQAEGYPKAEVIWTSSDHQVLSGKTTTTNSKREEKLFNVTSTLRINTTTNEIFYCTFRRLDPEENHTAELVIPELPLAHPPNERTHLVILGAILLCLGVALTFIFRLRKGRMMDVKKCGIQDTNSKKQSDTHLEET
- methodNotes: PD-L1 relative quantification by flow cytometry in MCF-7
- Assay type: cell-based
- Design: endogenous in cells; host or cells: MCF-7
- cond: MCF-7, 20 µM, 24 h, control = 100
- Protocol: In view of the good results obtained for these selected compounds, we decided to extend the study to a third cancer cell line, MCF-7 (Human breast cancer adenocarcinoma). First, we determined the IC50 values of the derivatives and their SI indexes (see Table 4). Then, we determined the effect of the selected compounds on the biological targets, PD-L1 and VEGFR-2, by flow cytometry. […] As usually, the assay was performed at a concentration of 20 µM for 24 h. […]
propertyName: % PD-L1 Total
Note to self: number, then unit, no commentary.

// worked examples, % PD-L1 Total included
molecule	% PD-L1 Total
Cc1c(COc2ccc(CN3CCCCC3C(=O)O)cc2Br)cccc1-c1ccccc1 (stereo not drawn) [BMS-8, reference compound]	197%
COc1ccc(COc2cccc(NC(=O)Nc3ccc(F)cc3)c2)cc1	62 ± 15%
COc1ccc(COc2cccc(NC(=O)Oc3ccccc3)c2)cc1	85 ± 15%
COc1ccc(COc2cccc(NC(=O)Nc3ccc(Br)cc3)c2)cc1	87 ± 23%
COc1ccc(COc2cccc(NC(=O)Nc3ccc(OC)cc3)c2)cc1	57 ± 15%

Consider the additional molecule presented here.
Could you share which % PD-L1 Total value was measured for CNC(=O)c1cc(Oc2ccc(NC(=O)Nc3ccc(Cl)c(C(F)(F)F)c3)cc2)ccn1 [Sorafenib, sorafenib, reference compound] ? 80 ± 13%

---

Hi there, I'd appreciate the recorded SI (HT-29) (IC50HEK293/IC50HT-29) for every entry that follows.
- Test system: HT-29 (colon adenocarcinoma)
- methodNotes: MTT cell proliferation assay, HT-29
- Type: cell-based, human
- cond: selectivity index

Worked cases, SI (HT-29) (IC50HEK293/IC50HT-29) given:
compound	SI (HT-29) (IC50HEK293/IC50HT-29)
COc1ccc(COc2cccc(NC(=O)Oc3ccccc3)c2)cc1 [Compound 14]	>15
COc1ccc(COc2cccc(NC(=O)Nc3ccc(Cl)cc3)c2)cc1 [Compound 5]	>8
COc1ccc(COc2cccc(NC(=O)Nc3ccc(Br)cc3)c2)cc1 [Compound 8]	>9
Cc1c(COc2ccc(CN3CCCCC3C(=O)O)cc2Br)cccc1-c1ccccc1 (stereo not drawn) [BMS-8, reference compound]	3

Provide SI (HT-29) (IC50HEK293/IC50HT-29) for all items below, preserving their order.
1. COc1ccc(COc2cccc(NC(=O)Nc3ccc(F)cc3)c2)cc1 [Compound 2]
2. COc1ccc(COc2cccc(NC(=O)Nc3ccc(OC)cc3)c2)cc1 [Compound 11]

1: >18; 2: >50

---

propertyName: melting point

Hey, quick one: what's melting point for each of these?
1. COc1ccc(COc2cccc(NC(=O)Nc3ccccc3Br)c2)cc1 [Compound 10]
2. COc1ccc(COc2cccc(NC(=O)Nc3cccc(OC)c3)c2)cc1 [Compound 12]
3. COc1ccc(COc2cccc(NC(=O)Nc3ccccc3Cl)c2)cc1 [Compound 7]
4. COc1ccc(COc2cccc(NC(=O)Nc3ccccc3OC)c2)cc1 [Compound 13]
5. COc1ccc(COc2cccc(NC(=O)Nc3ccccc3F)c2)cc1 [Compound 4]
6. COc1ccc(COc2cccc(NC(=O)Nc3ccc(F)cc3)c2)cc1 [Compound 2]
7. COc1ccc(COc2cccc(NC(=O)Nc3cccc(Br)c3)c2)cc1 [Compound 9]
8. COc1ccc(COc2cccc(NC(=O)Nc3cccc(F)c3)c2)cc1 [Compound 3]

198.5 °C
137.5 to 168.9 °C
183.4 °C
160 to 161.6 °C
185 to 186 °C
201 to 205 °C
198.5 °C
202 to 203 °C

---

- System: Fyn
- methodNotes: Immunoblotting of OT-1 CTL signaling proteins: FYN
- Type: cell-based, mice
- cond: OT-1, 20 μM, 24 h
propertyName: FYN protein expression (Western blot quantification)
One number for each entry.

compound	testValue
COc1ccc(COc2cccc(NC(=O)Oc3ccccc3)c2)cc1 [Compound 14]	102
COc1ccc(COc2cccc(NC(=O)Nc3ccc(F)cc3)c2)cc1 [Compound 2]	101

Batch lookup, FYN protein expression (Western blot quantification) per entry.
1. COc1ccc(COc2cccc(NC(=O)Nc3cccc(Br)c3)c2)cc1 [Compound 9]
2. COc1ccc(COc2cccc(NC(=O)Nc3ccc(OC)cc3)c2)cc1 [Compound 11]

[108, 109]

---

Give measured Total VEGFR-2 (%) for each item. Keep answers brief.
- studyTarget: VEGFR-2 (Homo sapiens)
- methodNotes: VEGFR-2 relative quantification by flow cytometry in A-549
- Assay type: cell-based
- Parameters: Both membrane and total PD-L1 and VEGFR-2 were relatively determined using DMSO-treated cells as a negative control; endogenous in cells; host or cells: A-549
- cond: A-549, 20 µM, 24 h, relative to DMSO control = 100
- Experimental: For these assays, cells were incubated for 24 h in the presence of the corresponding compounds at 20 µM concentration. To study the effect of the compounds on every biological target in cancer cell lines, the compounds were used at 20 µM dose. For the assay, 10^5 cells per well were incubated for 24 h with the corresponding dose of the tested compound in a total volume of 500 μL of their growth media. […]
Give bare numbers, in %.

Sample answers from the record:
compound	uom	Total VEGFR-2 (%)
Cc1c(COc2ccc(CN3CCCCC3C(=O)O)cc2Br)cccc1-c1ccccc1 (centres unmarked) [BMS-8, reference compound]	%	122
COc1ccc(COc2cccc(NC(=O)Oc3ccccc3)c2)cc1 [Compound 14]	%	107
COc1ccc(COc2cccc(NC(=O)Nc3ccc(Br)cc3)c2)cc1 [Compound 8]	%	141
COc1ccc(COc2cccc(NC(=O)Nc3ccc(OC)cc3)c2)cc1 [Compound 11]	%	143

Consider the compound COc1ccc(COc2cccc(NC(=O)Nc3ccc(F)cc3)c2)cc1 [Compound 2] and give its measured Total VEGFR-2 (%). 97

---

- Test system: HEK-293 (human embryonic kidney cells)
- methodNotes: MTT cell proliferation assay, HEK-293
- Format: cell-based
- cond: HEK293, 48 h of treatment
propertyName: pIC50
Give bare numbers, as −log10 of the molar value.

COc1ccc(COc2cccc(NC(=O)Nc3ccccc3Br)c2)cc1 5.06
COc1ccc(COc2cccc(NC(=O)Nc3cccc(Cl)c3)c2)cc1 5.48

Shifting focus to the compound that follows.
Which pIC50 is listed for COc1ccc(COc2cccc(NC(=O)Nc3cccc(OC)c3)c2)cc1 ? 4.92

---

Give THP-1 living cells compared to control (%), 2:1 HT-29/THP-1, 48 h for every item shown.
- Tested on: THP-1 cells
- methodNotes: Immune cell viability in monoculture and co-cultures with HT-29 by flow cytometry
- Assay type: cell-based, human
- cond: co-culture 2:1 HT-29/THP-1, 20 μM, 48 h
Numbers only, in %.

The examples below pair each entry with its known result.
molecule	testValue
COc1ccc(COc2cccc(NC(=O)Oc3ccccc3)c2)cc1	109
COc1ccc(COc2cccc(NC(=O)Nc3ccc(F)cc3)c2)cc1	105
COc1ccc(COc2cccc(NC(=O)Nc3ccc(OC)cc3)c2)cc1	102
Cc1c(COc2ccc(CN3CCCCC3C(=O)O)cc2Br)cccc1-c1ccccc1 (centres unmarked) [BMS-8, reference compound]	97

From here, focus on the item given below.
Quick one: THP-1 living cells compared to control (%), 2:1 HT-29/THP-1, 48 h for COc1ccc(COc2cccc(NC(=O)Nc3ccc(Br)cc3)c2)cc1 ? 97

---

- studyTarget: VEGFR-2 (Homo sapiens, UniProt P35968)
- Sequence (P35968 20-1356): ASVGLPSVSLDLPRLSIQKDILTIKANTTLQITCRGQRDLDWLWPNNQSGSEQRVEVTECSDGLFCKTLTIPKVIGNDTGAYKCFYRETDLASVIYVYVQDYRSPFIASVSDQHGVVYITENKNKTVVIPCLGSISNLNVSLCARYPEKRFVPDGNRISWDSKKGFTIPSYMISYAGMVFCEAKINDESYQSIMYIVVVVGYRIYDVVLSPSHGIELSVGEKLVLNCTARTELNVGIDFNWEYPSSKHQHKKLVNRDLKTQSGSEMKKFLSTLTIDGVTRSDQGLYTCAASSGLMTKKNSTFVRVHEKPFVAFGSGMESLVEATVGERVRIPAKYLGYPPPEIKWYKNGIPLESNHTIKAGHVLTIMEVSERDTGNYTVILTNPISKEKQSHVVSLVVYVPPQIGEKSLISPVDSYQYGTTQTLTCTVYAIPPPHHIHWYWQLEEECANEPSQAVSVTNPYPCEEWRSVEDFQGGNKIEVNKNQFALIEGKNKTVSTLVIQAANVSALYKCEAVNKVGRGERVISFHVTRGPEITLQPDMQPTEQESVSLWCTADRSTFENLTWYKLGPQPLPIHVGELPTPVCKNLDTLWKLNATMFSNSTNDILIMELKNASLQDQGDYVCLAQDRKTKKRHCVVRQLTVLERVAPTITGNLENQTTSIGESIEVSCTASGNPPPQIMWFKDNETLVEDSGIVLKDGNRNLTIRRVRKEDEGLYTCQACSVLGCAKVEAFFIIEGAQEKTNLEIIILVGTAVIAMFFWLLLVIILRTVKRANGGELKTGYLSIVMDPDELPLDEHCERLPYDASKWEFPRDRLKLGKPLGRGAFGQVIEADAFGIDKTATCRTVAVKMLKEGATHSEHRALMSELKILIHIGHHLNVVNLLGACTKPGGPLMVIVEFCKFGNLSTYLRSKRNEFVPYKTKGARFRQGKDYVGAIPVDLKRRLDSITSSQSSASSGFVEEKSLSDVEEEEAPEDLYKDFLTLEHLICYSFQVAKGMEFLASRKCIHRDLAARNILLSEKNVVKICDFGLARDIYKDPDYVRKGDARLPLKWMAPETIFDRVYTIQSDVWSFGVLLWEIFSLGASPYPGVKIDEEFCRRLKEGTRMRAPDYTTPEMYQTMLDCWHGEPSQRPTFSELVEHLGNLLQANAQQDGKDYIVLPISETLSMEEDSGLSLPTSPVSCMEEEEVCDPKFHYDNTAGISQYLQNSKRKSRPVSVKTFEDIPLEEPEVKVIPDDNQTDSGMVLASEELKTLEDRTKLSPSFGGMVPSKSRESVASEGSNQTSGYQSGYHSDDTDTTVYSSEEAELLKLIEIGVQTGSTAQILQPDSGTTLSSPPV
- methodNotes: VEGFR-2 relative quantification by flow cytometry in MCF-7
- Type: cell-based
- Design: Both membrane and total PD-L1 and VEGFR-2 were relatively determined using DMSO-treated cells as a negative control; endogenous in cells; host or cells: MCF-7
- cond: MCF-7, 20 µM, 24 h, control = 100
propertyName: % VEGFR-2 Total (%)
Numbers only, in %.

Reference set, count: 3
molecule	uom	% VEGFR-2 Total
COc1ccc(COc2cccc(NC(=O)Oc3ccccc3)c2)cc1 [Compound 14]	%	110
Cc1c(COc2ccc(CN3CCCCC3C(=O)O)cc2Br)cccc1-c1ccccc1 (centres unmarked) [BMS-8, reference compound]	%	93
COc1ccc(COc2cccc(NC(=O)Nc3ccc(OC)cc3)c2)cc1 [Compound 11]	%	83

// for each molecule in input: emit % VEGFR-2 Total
1. COc1ccc(COc2cccc(NC(=O)Nc3ccc(Br)cc3)c2)cc1 [Compound 8]
2. COc1ccc(COc2cccc(NC(=O)Nc3ccc(F)cc3)c2)cc1 [Compound 2]

[88, 72]
